Protocol Notes: Viability qHTS for spleen associated tyrosine kinase inhibitor (SYKi) drug resistant MV4-11 cells (AID 1963824); further: nearly all actives have a fitted effect of over 35% in size
Measurement Conditions: SYKi-resistant MV4-11 viability, CellTiter-Glo, 72 h; series mostly up to 45 µM
Results filed as inconclusive are left out. Calls of active or inactive are those of the source. The call rests on the fitted dose curve; in most records, active means well fitted cell-killing curve with a large enough effect; inconclusive means small, poorly fitted or top-dose-only effect, or effect the other way; inactive means no such curve, though single readings can be large or run the other way.
Choose one outcome from this list and give only that: active, inactive

[ask] Field: outcome | Entry: C/C=C1/[C@H](O[C@@H]2O[C@H](CO)[C@@H](O)[C@H](O)[C@H]2O)OC=C(C(=O)OC)[C@H]1CC(=O)OCCc1ccc(O)c(O)c1
[reply] inactive

[ask] Please state the recorded outcome for this compound: COc1ccc2c(c1)O[C@H](O[C@@H]1O[C@H](CO)[C@@H](O)[C@H](O)[C@H]1O)C(=O)N2
[reply] inactive

[ask] Would you mind telling me which call this test gave CN1[C@@H]2CC[C@H]1CC(OC(=O)c1c[nH]c3ccccc13)C2 (some centres not stated) ?
[reply] inactive

[ask] For CN(C)CCCCC(=O)Nc1ccc(NC(=S)NC(=O)c2ccc(C(C)(C)C)cc2)cc1 , which call appears in the assay record?
[reply] active

[ask] Record lookup: outcome of this test for COc1ccc(C2C(=O)c3ccccc3C2=O)cc1 ?
[reply] inactive

[ask] Hello, I am checking results. What call was entered for O=S1(=O)OC(c2ccc(O)cc2)(c2ccc(O)cc2)c2ccccc21 ?
[reply] inactive

[ask] Hi, sorry to bother you, what did the test record for C[C@@H]1CC[C@]2(C(=O)O[C@@H]3O[C@H](CO)[C@@H](O)[C@H](O)[C@H]3O)CC[C@]3(C)C(=CCC4[C@@]5(C)C[C@@H](O)[C@H](O)[C@](C)(C(=O)O)C5CC[C@]43C)[C@@H]2[C@]1(C)O (some centres not stated) ?
[reply] inactive

[ask] What classification did CC(=O)CCCCn1c(=O)c2c(ncn2C)n(C)c1=O end up with in this test?
[reply] inactive

[ask] Look up the recorded call for Cn1cc(CCn2cnc(-c3cnn(C)c3)c2-c2ccc(C#N)cc2)cn1 in this test.
[reply] inactive

[ask] Fill in: this test's call for CC1CC(O)C2(OC1=O)OC1C(O)C3C4CCC5CC(OC6OC(CO)C(O)C(O)C6OC6OC(C)C(O)C(O)C6O)CCC5(C)C4CCC3(C)C1C2C (configuration not stated) is ___
[reply] inactive

[ask] Entry C/C(=C\CCC(C)C1CC(O)C2(C)C3CCC4C(C)(C)C(OC5OCC(O)C(O)C5O)CCC45CC35CC(O)C12C)C(=O)O (configuration not stated) : call = ?
[reply] inactive

[ask] In this assay, the call recorded for CC(C)C(C#N)O[C@@H]1O[C@H](CO[C@@H]2O[C@@H](C)[C@H](O)[C@@H](O)[C@H]2O)[C@@H](O)[C@H](O)[C@H]1O (some centres not stated) was what?
[reply] inactive

[ask] Test call, this compound: O=C(/C=C/c1ccc2ccccc2n1)c1ccncc1
[reply] active

[ask] So what was the verdict on OC[C@H]1O[C@@H](OC[C@H]2O[C@@H](OCc3ccccc3)[C@H](O)[C@@H](O)[C@@H]2O)[C@H](O)[C@@H](O)[C@@H]1O in this test?
[reply] inactive

[ask] Given C=C1C(=O)O[C@@H]2C[C@H](C)[C@@H]3CC(=O)C(C)=C3C[C@H]12 , state the outcome it received in this test.
[reply] active

[ask] Short answer needed: outcome of this test for Cc1cn(C2C[C@H](O)[C@@H](CO)O2)c(=O)[nH]c1=O (some centres not stated) ?
[reply] inactive

[ask] I would be grateful if you could indicate the recorded call for O=Nc1c(-c2c(O)[nH]c3ccc(F)cc23)[nH]c2ccccc12 .
[reply] active

[ask] Which outcome was entered for the compound C=C1C(=O)OC2/C=C(\C)CC/C=C(\C=O)C(OC)C(OC(=O)C(C)CC)C12 (configuration not stated) in this test?
[reply] active

[ask] Tell me the recorded outcome of this test for Nc1cc(C(Cl)=C(Cl)Cl)c(S(N)(=O)=O)cc1S(N)(=O)=O .
[reply] inactive

[ask] How did this test come out for C/C=C(\C)C(=O)OC1C(C)C2(O)C(C=C(CO)CC3(O)C(=O)C(C)=CC32)C2C(C)(C)C12OC(C)=O (configuration not stated) ?
[reply] active

[ask] Give the logged outcome of this assay for the following compound: N#Cc1cc(F)cc(-c2nc(-c3ccccn3)no2)c1
[reply] inactive

[ask] Check the results log: what was the call for C/C=C(/COC(=O)/C(C)=C/C)C(=O)OC(CC)c1ccc(OC)c(OC)c1 (configuration not stated) ?
[reply] inactive

[ask] # lookup: test call for O=c1[nH]cnc2nc[nH]c12
[reply] inactive

[ask] Hi, sorry to bother you, what did the test record for COc1ccc2c(OCc3nnc4ccc(-c5ccccc5)nn34)ccnc2c1 ?
[reply] inactive

[ask] What is the recorded call for this compound in the test? CCCOc1ccc(C(=O)OCCN(CC)CC)cc1N
[reply] inactive

[ask] Could you please tell me the result logged for COc1ccccc1OC(=O)Oc1ccccc1OC in this assay?
[reply] active

[ask] What classification did Cc1cc(O)cc(O[C@@H]2O[C@H](CO)[C@@H](O)[C@H](O)[C@H]2O)c1 end up with in this test?
[reply] inactive

[ask] Recorded test call requested for O=C1OC(c2ccc(O)cc2)(c2ccc(O)cc2)c2ccccc21
[reply] active

[ask] Hi, do you know how C[C@H]1/C=C/C=C/C=C/C=C/C=C/[C@@H](O)[C@H](C(=O)O)[C@H](O)C[C@H](O)CCC[C@H](O)C[C@H](O)C[C@H](O)[C@@H](C)C(=O)O[C@@H]1C came out in this test?
[reply] inactive

[ask] Just curious, what result did COc1ccccc1[C@@H]1C2=C(CC(C)(C)CC2=O)Nc2n[nH]c(C(F)(F)F)c21 get here?
[reply] active

[ask] Write down the call the test reported for this compound. Item: C[N+]1(CC2COC(c3ccccc3)(c3ccccc3)O2)CCCCC1 (configuration not stated)
[reply] active

[ask] Per the records of this test, what outcome belongs to CC(=O)c1cc2c(o1)C(=O)c1ccccc1C2=O ?
[reply] active

[ask] Name the outcome recorded for O=C1CC(c2ccc(Cl)cc2)CC(=O)N1 in the assay.
[reply] inactive

[ask] Outcome logged for COc1c(C(C)C)c(O)c(O)c2c1C(OC)[C@H]1OC(=O)[C@@]23CCCC(C)(C)[C@H]13 (some centres not stated) in this assay:
[reply] active

[ask] How was O=C(C1=CCN2c3c(cccc31)OC[C@H]2CN1CCOCC1)c1cccc2ccccc12 classified in this test?
[reply] active

[ask] Hi, do you know how O=C(O)Cn1c(C(=O)Nc2nc(-c3ccccc3Cl)cs2)cc2ccccc21 came out in this test?
[reply] inactive

[ask] For this compound, state the assay outcome: CCOC(CN1C(=O)[C@](CC(=O)Nc2ccc(C)cc2)(NC(=O)Nc2ccc(C)cc2)c2ccccc21)OCC
[reply] active

---

Protocol Notes: Viability qHTS for spleen associated tyrosine kinase inhibitor (SYKi) naive MV4-11 cells (AID 1963823); further: nearly all actives have a fitted effect of over 40% in size; further: potency means the concentration at half of the fitted maximal effect
Measurement Conditions: MV4-11 AML viability, CellTiter-Glo luminescence, 72 h; series mostly up to 45 µM
Description: Department of Medicine, Hematology/Oncology University Hospital Frankfurt, Germany. Trials have shown promising clinical activity of the selective SYK inhibitor entospletinib in patients with high expressing HOXA9/MEIS1 acute leukemias. […] 7; Detection; Luminescence; ViewLux plate reader (PerkinElmer). […] 1. Quantitative high-throughput screening (qHTS) of small molecule compounds was conducted on naive SYKi MV4-11 cell line. […] 7. Luminescence was measured on a ViewLux plate reader (PerkinElmer).
Records with an inconclusive call do not appear. Calls of active or inactive are those of the source. Calls follow the shape of the dose curve; as a rule, active = well fitted cell-killing curve with a large enough effect; inconclusive = small, poorly fitted or top-dose-only effect, or effect the other way; inactive = no such curve, though single readings can be large or run the other way.
Readout Kind: Potency

Sample answers from the record:
INSERT INTO measurements (molecule, readout_kind, assay_value) VALUES
  ('CC(C)(C)c1cc(NC(=O)Nc2ccc(-c3cn4c(n3)sc3cc(OCCN5CCOCC5)ccc34)cc2)no1', 'Potency', 'inactive'),
  ('O=c1[nH]nc(Sc2ncc([N+](=O)[O-])s2)n1-c1ccc2c(c1)OCCO2', 'Potency', '2.35 µM (active)'),
  ('C=C(C(=O)OC[C@H]1O[C@@H](OC(=O)/C=C/c2ccccc2)[C@H](O)[C@@H](O)[C@@H]1O)C(O)CO (stereo not given in full)', 'Potency', '7.96 µM (active)'),
  ('Cc1cc(C)nc(NS(=O)(=O)c2ccc(NC(=S)NC(=O)COc3ccc(Br)cc3Cl)cc2)n1', 'Potency', 'inactive'),
  ('C=C1C(=O)O[C@@H]2C[C@H](C)[C@@H]3CC(=O)[C@H](O)[C@@]3(C)C[C@H]12', 'Potency', '9.2 µM (active)');

[ask] Given Cc1cccc(C)c1NC(=O)CN(CC(=O)O)CC(=O)O , state its recorded Potency.
[reply] inactive

[ask] Potency for COC1CCN(C(=O)c2cc(Cc3n[nH]c(=O)c4ccccc34)ccc2F)CC1 ?
[reply] 18.6 µM (active)

[ask] Potency for CC1(C)CCC[C@@]2(C)[C@H]1[C@H](O)C=C(CO)[C@]2(O)CO ?
[reply] inactive

[ask] Potency lookup needed for CC(C)(C)NC(=O)Nc1cccc(Nc2ncc(F)c(NC(C)(C)CO)n2)c1 , thanks.
[reply] 1.48 µM (active)

[ask] Which Potency is reported for this molecule? CC(/C=C/[C@@H]1C[C@]1(C)c1ccc2c(c1)C(C)(C)CCC2(C)C)=C\C(=O)O
[reply] 0.0661 µM (active)

From: PubChem BioAssay (NCATS)
